Study Target: STAT6 protein (Homo sapiens)
Sequence (P42226 whole entry): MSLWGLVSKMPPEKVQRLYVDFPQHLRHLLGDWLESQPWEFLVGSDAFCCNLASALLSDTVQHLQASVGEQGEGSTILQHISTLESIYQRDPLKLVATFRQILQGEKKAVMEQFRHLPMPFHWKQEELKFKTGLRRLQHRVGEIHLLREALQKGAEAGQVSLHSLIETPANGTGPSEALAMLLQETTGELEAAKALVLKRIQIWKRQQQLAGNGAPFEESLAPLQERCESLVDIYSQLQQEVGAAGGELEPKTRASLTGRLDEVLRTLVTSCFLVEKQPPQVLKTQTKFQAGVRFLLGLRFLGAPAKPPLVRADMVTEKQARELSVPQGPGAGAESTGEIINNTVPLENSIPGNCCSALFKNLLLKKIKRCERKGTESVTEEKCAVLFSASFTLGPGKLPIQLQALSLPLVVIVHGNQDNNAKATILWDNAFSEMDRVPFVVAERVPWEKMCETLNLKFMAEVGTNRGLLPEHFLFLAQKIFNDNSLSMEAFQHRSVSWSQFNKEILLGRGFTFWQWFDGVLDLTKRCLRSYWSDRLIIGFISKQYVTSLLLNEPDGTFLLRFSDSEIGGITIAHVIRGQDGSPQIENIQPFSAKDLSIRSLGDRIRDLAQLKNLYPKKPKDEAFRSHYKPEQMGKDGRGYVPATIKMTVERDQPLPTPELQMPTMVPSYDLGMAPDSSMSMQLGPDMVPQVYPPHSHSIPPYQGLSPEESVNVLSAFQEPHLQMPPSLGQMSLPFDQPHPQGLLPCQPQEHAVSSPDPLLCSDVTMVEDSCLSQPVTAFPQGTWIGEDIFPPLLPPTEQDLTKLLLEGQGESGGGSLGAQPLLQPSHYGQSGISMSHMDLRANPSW
Assay Info: Fluorescence polarization (FP) binding assay, STAT6
Test Settings: FP competition, 5 nM fluorescein-labeled tracer, 200 nM protein, PBS pH7.4; read-out: Binding STAT6
pKi: −log10 of the molar value.
Measured pKi accompanies every entry in the list below.

[
  {
    "Molecule": "CC(C)(C)[C@H](NC(=O)c1cc2cc(C(F)(F)P(=O)(O)O)ccc2s1)C(=O)N1CCC[C@H]1C(=O)Nc1nc(Cc2ccccc2)cs1 [Compound 212]",
    "Study Target": "STAT6 protein (Homo sapiens)",
    "pKi": "5.00 to 6.00"
  },
  {
    "Molecule": "O=C(N[C@@H](Cc1ccncc1)C(=O)N1CCC[C@H]1C(=O)N1CCO[C@H](c2ccccc2)C1)c1cc2cc(C(F)(F)P(=O)(O)O)ccc2s1 [Compound 270]",
    "Study Target": "STAT6 protein (Homo sapiens)",
    "pKi": "6.00 to 7.00"
  },
  {
    "Molecule": "CC(C)(C)[C@H](NC(=O)c1cc2cc(C(F)(F)P(=O)(O)O)ccc2[nH]1)C(=O)N1CCC[C@H]1c1nc(-c2ccccc2)cs1 [Compound 19]",
    "Study Target": "STAT6 protein (Homo sapiens)",
    "pKi": "5.00 to 6.00"
  },
  {
    "Molecule": "CC(C)(O)[C@H](NC(=O)c1cc2cc(C(F)(F)P(=O)(O)O)ccc2s1)C(=O)N1CCC[C@H]1C(=O)N1CCO[C@H](c2ccccc2)C1 [Compound 149]",
    "Study Target": "STAT6 protein (Homo sapiens)",
    "pKi": "6.00 to 7.00"
  },
  {
    "Molecule": "CC(=O)N1CC[C@H]2CC[C@@H](C(=O)N3CCOC[C@H]3c3ccccc3)N2C(=O)[C@@H](NC(=O)c2cc3cc(C(F)(F)P(=O)(O)O)ccc3s2)C1 [Compound 121]",
    "Study Target": "STAT6 protein (Homo sapiens)",
    "pKi": "5.00 to 6.00"
  },
  {
    "Molecule": "CC(C)(C)[C@H](NC(=O)c1cc2cc(C(F)(F)P(=O)(O)O)ccc2s1)C(=O)N1CCCCC[C@H]1C(=O)N1CCC[C@H](c2ccccc2)C1 [Compound 184]",
    "Study Target": "STAT6 protein (Homo sapiens)",
    "pKi": "6.00 to 7.00"
  },
  {
    "Molecule": "CC(C)(C)[C@H](NC(=O)c1cc2cc(C(F)(F)P(=O)(O)O)ccc2s1)C(=O)N1Cc2ccccc2C[C@H]1C(=O)N1CCOC(c2ccccn2)C1 (some centres unmarked) [Compound 216]",
    "Study Target": "STAT6 protein (Homo sapiens)",
    "pKi": "< 5.00"
  },
  {
    "Molecule": "CC(=O)N1CC[C@H]2CN(C(=O)[C@@H]3CCCN3C(=O)[C@@H](NC(=O)c3cc4cc(C(F)(F)P(=O)(O)O)ccc4s3)C(C)(C)C)C[C@H]21 [Compound 95]",
    "Study Target": "STAT6 protein (Homo sapiens)",
    "pKi": "< 5.00"
  },
  {
    "Molecule": "CC(C)(C)[C@H](NC(=O)c1cc2cc(C(F)(F)P(=O)(O)O)ccc2s1)C(=O)N1Cc2ccccc2[C@H]1C(=O)N1Cc2ccccc2C1 [Compound 199]",
    "Study Target": "STAT6 protein (Homo sapiens)",
    "pKi": "5.00 to 6.00"
  },
  {
    "Molecule": "CN(C)CCC[C@H](NC(=O)c1cc2cc(C(F)(F)P(=O)(O)O)ccc2s1)C(=O)N1CCC[C@H]1C(=O)N1CCO[C@H](c2ccccc2)C1 [Compound 274]",
    "Study Target": "STAT6 protein (Homo sapiens)",
    "pKi": "6.00 to 7.00"
  },
  {
    "Molecule": "CC(=O)N1CC[C@H]2CC[C@@H](C(=O)N3CCOC(C)(c4ccc(F)cc4)C3)N2C(=O)[C@@H](NC(=O)c2cc3cc(C(F)(F)P(=O)(O)O)ccc3s2)C1 (some centres unmarked) [Compound 159]",
    "Study Target": "STAT6 protein (Homo sapiens)",
    "pKi": "5.00 to 6.00"
  }
]
